# Tested on: 994946-033-R-J1-PDC complex spheroid viability;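 further: spheroids exposed to drugs for 7 days; 100% = DMSO vehicle treated spheroids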
# assay details: Anticancer human tumor 994946-033-R-J1-PDC patient-derived melanoma cell line growth inhibition [POLQ]
# assay context: second compound 3.16 µM; first compound 0.00316 µM; hits give low values
attribute measured: viability, T/C (%)
Could you give me the number in %? Just the number is fine.

The compound listed as Cn1ncnc1[C@H]1c2n[nH]c(=O)c3cc(F)cc(c23)N[C@@H]1c1ccc(F)cc1 + Nc1ccc(C#CCN(C(=O)Cc2ncc(C(F)(F)F)cc2C(F)(F)F)c2ccc(F)cc2)nn1 shows viability, T/C equal to 74.5

C=CCn1c(=O)c2cnc(Nc3ccc(N4CCN(C)CC4)cc3)nc2n1-c1cccc(C(C)(C)O)n1 + Cc1cccc(N(C)C(=O)C2C(O)CCN2c2nc(C)cc(C(F)(F)F)c2C#N)c1 yielded viability, T/C of 116

Entry CCc1c2c(nc3ccc(O)cc13)-c1cc3c(c(=O)n1C2)COC(=O)[C@]3(O)CC + COC1C(OC(N)=O)C(O)C(Oc2ccc3c(O)c(NC(=O)c4ccc(O)c(CC=C(C)C)c4)c(=O)oc3c2C)OC1(C)C — recorded viability, T/C = 17.8

According to the records, this compound CC[C@@]1(O)C(=O)OCc2c1cc1n(c2=O)Cc2cc3c(CN(C)C)c(O)ccc3nc2-1 + Cc1cccc(N(C)C(=O)C2C(O)CCN2c2nc(C)cc(C(F)(F)F)c2C#N)c1 displays viability, T/C of 77

Measured viability, T/C of Cn1ncnc1[C@H]1c2n[nH]c(=O)c3cc(F)cc(c23)N[C@@H]1c1ccc(F)cc1 + COC1C(OC(N)=O)C(O)C(Oc2ccc3c(O)c(NC(=O)c4ccc(O)c(CC=C(C)C)c4)c(=O)oc3c2C)OC1(C)C : 117
